Test: ATG_CMV_CIS: Attagene CIS-FACTORIAL HepG2 Assay for human CMV (Internal Marker) (AID 2282928);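 further: endpoint acts as a background internal control marker rather than a target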
Details: HepG2 CMV promoter reporter, transcription factor profiling; actives raise or lower the signal
Activity calls are given as the source filed them. How the source made its calls: active means hit-call score of the fitted dose curve at least 0.9, where 1 is the maximum; inactive means score below 0.9.
Field 'call' accepts active, inactive

>>> print(df.to_string())
                                  molecule  qualitative_label
0       CC1CCC(CO)CC1 (stereo unspecified)           inactive
1                       C=CC(=O)OCCN(CC)CC             active
2           FC(F)(F)C(F)(F)C(F)(F)C(F)(F)I           inactive
3                  CC(C)(C)c1ccc(CCC=O)cc1           inactive
4                 Cc1ccc2ccc3ccc(C)cc3c2c1           inactive
5  O=C(Nc1ccc(Cl)c(Cl)c1)c1cc(Cl)cc(Cl)c1O           inactive

Per the assay record, what outcome was assigned to Brc1cc(Br)c(Oc2c(Br)cc(Br)c(Br)c2Br)cc1Br ? inactive
